studySystem: IgG receptor FcRn large subunit p51 (Homo sapiens, UniProt P55899)
Sequence (P55899 whole entry): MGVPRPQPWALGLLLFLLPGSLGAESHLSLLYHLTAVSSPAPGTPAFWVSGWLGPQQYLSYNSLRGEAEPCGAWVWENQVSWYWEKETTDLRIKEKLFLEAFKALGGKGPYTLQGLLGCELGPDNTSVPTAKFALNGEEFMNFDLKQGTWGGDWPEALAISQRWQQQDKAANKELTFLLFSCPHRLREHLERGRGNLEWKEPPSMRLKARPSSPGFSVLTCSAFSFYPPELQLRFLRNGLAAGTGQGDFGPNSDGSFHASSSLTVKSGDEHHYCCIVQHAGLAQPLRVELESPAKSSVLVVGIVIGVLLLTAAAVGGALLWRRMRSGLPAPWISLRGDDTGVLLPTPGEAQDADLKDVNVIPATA
procedureDetails: Binding affinity to soluble human FcRn at pH 6 by surface plasmon resonance assay
endpointName: Kd (nM)
Number in nM, nothing else.

Below are worked cases with known answers.
{"itemSmiles": "CC(=O)N[C@@H](CCCNC(=N)N)C(=O)N[C@@H](Cc1ccccc1)C(=O)N[C@@H]1C(=O)N[C@@H]([C@@H](C)O)C(=O)NCC(=O)N[C@@H](Cc2c[nH]cn2)C(=O)N[C@@H](Cc2ccccc2)C(=O)NCC(=O)N(C)CC(=O)N(C)[C@@H](CC(C)C)C(=O)N[C@@H](Cc2ccc(O)cc2)C(=O)C(=O)N2CCC[C@H]2C(=O)N[C@H](C(N)=O)CSSC1(C)C", "u": "nM", "valueReported": 31}
{"itemSmiles": "CC(=O)N[C@@H](CCCNC(=N)N)C(=O)N[C@@H](Cc1ccccc1)C(=O)N[C@@H]1C(=O)N(C)[C@@H](C)C(=O)NCC(=O)N[C@@H](Cc2cnc[nH]2)C(=O)N[C@@H](Cc2ccccc2)C(=O)N[C@H]2CCCN(CC(=O)N(C)[C@@H](CC(C)C)C(=O)N[C@@H](Cc3ccc(O)cc3)C(=O)C(=O)N3CCC[C@H]3C(=O)N[C@H](C(N)=O)CSSC1(C)C)C2=O", "u": "nM", "valueReported": 150}
{"itemSmiles": "CC(=O)N[C@@H](CCCNC(=N)N)C(=O)N[C@@H](Cc1ccccc1)C(=O)N[C@H]1CSSC[C@@H](C(N)=O)NC(=O)[C@@H]2CCCN2C(=O)C(=O)[C@H](Cc2ccc(O)cc2)NC(=O)[C@H](CC(C)C)NC(=O)CNC(=O)CNC(=O)[C@H](Cc2ccccc2)NC(=O)[C@H](Cc2cnc[nH]2)NC(=O)CNC(=O)[C@H]([C@@H](C)O)NC1=O", "u": "nM", "valueReported": 5900}

Below: the item to evaluate.
Entry under test: CC(=O)N[C@@H](CCCNC(=N)N)C(=O)N[C@@H](Cc1ccccc1)C(=O)N[C@H]1CC(=O)NCCCC[C@@H](C(N)=O)NC(=O)[C@@H]2CCCN2C(=O)C(=O)[C@H](Cc2ccc(O)cc2)NC(=O)[C@H](CC(C)C)N(C)C(=O)CN(C)C(=O)CNC(=O)[C@@H](Cc2ccccc2)NC(=O)[C@H](Cc2c[nH]cn2)NC(=O)CNC(=O)[C@H]([C@@H](C)O)NC1=O . Its Kd was 140
